biological target: Phospholipase A2, membrane associated (Homo sapiens, UniProt P14555); assay: Tested for inhibitory activity against human synovial fluid PLA2 (HSF-PLA2)
Sequence (P14555 whole entry): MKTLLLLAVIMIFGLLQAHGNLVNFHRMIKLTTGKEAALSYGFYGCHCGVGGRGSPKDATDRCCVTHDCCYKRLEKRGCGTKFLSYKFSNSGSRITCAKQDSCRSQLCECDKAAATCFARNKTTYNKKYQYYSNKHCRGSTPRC
Each record here notes measured IC50.
Just the number please, in nM, no unit attached.

{"molecular string": "CCCCCCCCCCOc1cc(OCCCCCCCCCC)cc(N(CC(=O)O)CC(=O)O)c1", "value units": "nM", "measured value": 230}

Then this compound:
So for CCCCCCCCCCOc1cc(OCCCCCCCCCC)cc(C(=O)O)c1 , the logged IC50 turned out to be 3000
